# System: Staphylococcus aureus
# measurementDescription: Antimicrobial activity against Staphylococcus aureus EMBLC-2 by XTT assay
# Type: functional

>  <molecule>
O=C(N[C@H](CO)[C@H](O)c1ccc([N+](=O)[O-])cc1)C(Cl)Cl [CHLORAMPHENICOL]

>  <unitsText>
µg/mL

>  <MIC>
2

$$$$
>  <molecule>
Cc1cc(O)c2c(c1O)[C@H](O)[C@H]1C[C@@H](O)C[C@H](O)[C@@H]1C2=O

>  <unitsText>
µg/mL

>  <MIC>
4

$$$$
>  <molecule>
Cc1cc(O)c2c(c1O)[C@H](O)[C@H]1C[C@@H](O)CC[C@@H]1C2=O

>  <unitsText>
µg/mL

>  <MIC>
4

$$$$
>  <molecule>
CO[C@@H]1c2c(O)cc(C)c(O)c2C(=O)[C@@H]2C[C@H](O)C[C@H](O)[C@@H]12

>  <unitsText>
µg/mL

>  <MIC>
8

$$$$
>  <molecule>
Cc1cc(O)c2c(c1O)[C@H](O)[C@H]1C[C@@H](O)C[C@@H](O)[C@@H]1C2=O

>  <unitsText>
µg/mL

>  <MIC>
4

$$$$
>  <molecule>
O=C1c2c(O)cc(CO)c(O)c2[C@H](O)[C@H]2C[C@@H](O)CC[C@H]12

>  <unitsText>
µg/mL

>  <MIC>
2

$$$$
